Target: human CD28 (human, UniProt P10747 19-220)
Assay: cell-based or functional assay
Property measured: Luciferase assay (EC50) (nM)
Numeric answer only, unit nM assumed.

Study these solved cases before continuing.
# Binder, Luciferase assay (EC50), nM
records = [
    ("1h-99-256 (other) VH: EVQLLESGGGLVQPGGSLRLSCAASGFTFDSANMSWVRQAPGKGLEWVSWIEAIGVQTFYADSVKGRFTISRDNSKNTLYLQMNSLRAEDTAVYYCAKSPFGPLYGFDYRGQGTLVTVSS", 9),
    ("1h-99-277 (other) VH: EVQLLESGGGLVQPGGSLRLSCAASGFTFDSANMSWARQAPGKGLEWVSWIEAVGVQTFYADSVKGRFTISRDNSKNTLYLQMNSLRAEDTAVYYCAKSPFGPLYGFDYRGQGTLVTVSS", 6),
    ("1h-239-815 (other) VL: DIQMTQSPSSLSASVGDRVTITCRASQPIWPFLEWYQQKPGKAPKLLIYFTSRLQSGVPSRFSGSGSGTDFTLTISSLQPEDFATYYCLQNVTNPATFSQGTKVEIKR", 10),
    ("1h-99-260 (other) VH: EVQLLESGGGLVQPGGSLRLSCAASGFTFDSANMSWARQAPGKGLEWVSWIEANGPQTFYADSVKGRFTISRDNSKNTLYLQMNSLRAEDTAVYYCAKSPFGPLYGFDYRGQGTLVTVSS", 11),
]

Could you share which Luciferase assay (EC50) value was measured for 1h-99-237 (other) VH: EVQLLESGGGLVQPGGSLRLSCAASGFTFDSANMSWARQAPGKGLEWVSWIEAPGVQTFYADSVRGRFTISRDNSKNTLYLQMNSLRAEDTAVYYCARSPFGPLYGFDYRGQGTLVTVSS ? 3

Look up Luciferase assay (EC50): 1h-99-241 (other) VH: EVQLLESGGGLVQPGGSLRLSCAASGFTFDSANMSWVRQAPGKGLEWVSWIENNGPQTFYADSVKGRFTISRDDSKNTLYLQMNSLRAEDTAVYYCAKSPFGPLYGFDYRGQGTLVTVSS 17

Item under review: 1h-79-808 (other) VL: DIQMTQSPSSLSASVGDRVTITCRASQPIGHALGWYQQKPGKAPRLLIYWASTLQSGVPSRFSGSGSGTDFTLTISSLQPEDFATYYCQQMLRTPFMFGQGTKVEIKR . Reported Luciferase assay (EC50)? 560

# input binder: 1h-79-1519 (other) VL: DIQMTQSPSSLSASVGDRVTITCRASQPIGHSLGWYQQKPGKAPKLLIYWASLLLDGVPSRFSGSGSGTDFTLTISSLQPEDFATYYCQQMLRTPFTFGQGTKVEIKR ; wanted: its Luciferase assay (EC50) 97

# lookup: Luciferase assay (EC50) of 1h-99-2113 (other) VH: EVQLLESGGGLVQPGGSLRLSCAASGFTFKDKNMSWARQAPGKGLEWVSWIEASGVQTFYADSVKGRFTISRDNSKNTLYLQMNSLRAEDTAVYYCAKSPFGPLYGFDYRGQGTLVTVSS 5

Luciferase assay (EC50) for 1h-79 (other) VL: DIQMTQSPSSLSASVGDRVTITCRASQPIGHSLAWYQQKPGKAPKLLIYWASTLQSGVPSRFSGSGSGTDFTLTISSLQPEDFATYYCQQMLRTPFTFGQGTKVEIKR ? 3800

For the binder 1h-79-17 (other) VL: DIQMTQSPSSLSASVGDRVTITCRASQPIGHSLAWYQQKPGKAPKLLIYWASTLQSGVPSRFSGSGSGTDFTLTISSLQPEDFATYYCQQMLRTPFAFGQGTKVEIKR , what Luciferase assay (EC50) is on record? 2500

Where do the numbers come from? From patent US20130109846A1.
